- MEASURED_ON: Beta-secretase 1 (Homo sapiens, UniProt P56817)
- Sequence (P56817 whole entry): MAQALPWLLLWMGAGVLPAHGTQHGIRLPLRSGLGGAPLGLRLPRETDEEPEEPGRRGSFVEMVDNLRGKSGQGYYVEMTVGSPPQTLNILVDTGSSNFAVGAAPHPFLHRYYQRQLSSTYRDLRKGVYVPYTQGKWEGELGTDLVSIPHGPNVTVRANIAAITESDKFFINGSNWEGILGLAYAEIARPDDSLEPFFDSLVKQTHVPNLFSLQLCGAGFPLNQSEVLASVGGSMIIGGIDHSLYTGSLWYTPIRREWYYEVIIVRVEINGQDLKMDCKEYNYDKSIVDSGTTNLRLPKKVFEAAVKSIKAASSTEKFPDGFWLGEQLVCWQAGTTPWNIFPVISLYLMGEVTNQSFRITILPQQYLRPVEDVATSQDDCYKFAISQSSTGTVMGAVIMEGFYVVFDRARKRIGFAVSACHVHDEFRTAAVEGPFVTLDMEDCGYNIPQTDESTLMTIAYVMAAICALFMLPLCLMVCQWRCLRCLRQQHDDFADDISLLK
- RUN_DESCRIPTION: Inhibition of human recombinant BACE1
TEST_READOUT: IC50 (nM)
Please reply with the bare figure in nM and do not write the unit itself.

{"columns": ["COMPOUND_STRUCTURE_STRING", "RESULT_UNIT", "VALUE"],
 "data": [
  ["CC(C)C[C@H](NC(=O)[C@@H](NC(=O)[C@@H](N)CNC(=O)c1nnn[nH]1)C(C)C)C(=O)N[C@@H](Cc1ccccc1)[C@@H](O)C(=O)NS(=O)(=O)C(F)(F)F", "nM", 29.9]
]}

Now, please, on to the next molecule.
Prompt: Could you tell me which IC50 is on file for "CC(C)C[C@H](NC(=O)[C@@H](NC(=O)[C@@H](N)CNC(=O)c1nnn[nH]1)C(C)C)C(=O)N[C@@H](Cc1ccccc1)[C@@H](O)C(=O)Nc1cc(Cl)cc(Cl)c1" ?
Response: 14

----------
Reported inhibition values are given for each entry in this list.
- MEASURED_ON: Beta-secretase 1 (Homo sapiens, UniProt P56817)
- RUN_DESCRIPTION: Inhibition of human recombinant BACE1 at 2 uM
Please reply with the bare figure in % and do not write the unit itself.

{"columns": ["COMPOUND_STRUCTURE_STRING", "RESULT_UNIT", "VALUE"],
 "data": [
  ["CC(C)C[C@H](NC(=O)[C@@H](NC(=O)[C@@H](N)CNC(=O)c1nn[nH]n1)C(C)C)C(=O)N[C@@H](Cc1ccccc1)[C@@H](O)C(=O)Nc1cccc([N+](=O)[O-])c1", "%", 96],
  ["CC(C)C[C@H](NC(=O)[C@@H](NC(=O)[C@@H](N)CCC(=O)O)C(C)C)C(=O)N[C@@H](Cc1ccccc1)[C@@H](O)C(=O)Nc1cc(Cl)c(O)c(Cl)c1", "%", 80],
  ["CC(C)C[C@H](NC(=O)[C@@H](NC(=O)[C@@H](N)CNC(=O)c1nn[nH]n1)C(C)C)C(=O)N[C@@H](Cc1ccccc1)[C@@H](O)C(=O)NS(=O)(=O)C(F)(F)F", "%", 98]
]}

Prompt: Could you tell me which inhibition is on file for "CC(C)C[C@H](NC(=O)[C@@H](NC(=O)[C@@H](N)CCC(=O)O)C(C)C)C(=O)N[C@@H](Cc1ccccc1)[C@@H](O)C(=O)Nc1cccc(O)c1" ?
Response: 54

Prompt: Could you tell me which inhibition is on file for "CC(C)C[C@H](NC(=O)[C@@H](NC(=O)[C@@H](N)CCC(=O)O)C(C)C)C(=O)N[C@@H](Cc1ccccc1)[C@@H](O)C(=O)Nc1cc(Cl)cc(Cl)c1" ?
Response: 78

Prompt: Could you tell me which inhibition is on file for "CC(C)C[C@H](NC(=O)[C@@H](NC(=O)[C@@H](N)CNC(=O)c1nn[nH]n1)C(C)C)C(=O)N[C@@H](Cc1ccccc1)[C@@H](O)C(=O)Nc1cccc(OC(F)(F)F)c1" ?
Response: 93

----------
Reported inhibition values are given for each entry in this list.
- MEASURED_ON: Beta-secretase 1 (Homo sapiens, UniProt P56817)
- RUN_DESCRIPTION: Inhibition of human recombinant BACE1 at 2 uM
Please reply with the bare figure in % and do not write the unit itself.

Please review the following examples before continuing.
{"columns": ["COMPOUND_STRUCTURE_STRING", "VALUE"],
 "data": [
  ["CC(C)C[C@H](NC(=O)[C@@H](NC(=O)[C@@H](N)CCC(=O)O)C(C)C)C(=O)N[C@@H](Cc1ccccc1)[C@@H](O)C(=O)Nc1cc(C(F)(F)F)cc(C(F)(F)F)c1", 74],
  ["CC(C)C[C@H](NC(=O)[C@@H](NC(=O)[C@@H](N)CCC(=O)O)C(C)C)C(=O)N[C@@H](Cc1ccccc1)[C@@H](O)C(=O)Nc1cc([N+](=O)[O-])cc([N+](=O)[O-])c1", 60],
  ["CC(C)C[C@H](NC(=O)[C@@H](NC(=O)[C@@H](N)CNC(=O)c1nn[nH]n1)C(C)C)C(=O)N[C@@H](Cc1ccccc1)[C@@H](O)C(=O)Nc1cc(C(F)(F)F)cc(C(F)(F)F)c1", 95],
  ["CC(C)C[C@H](NC(=O)[C@@H](NC(=O)[C@@H](N)CNC(=O)c1nn[nH]n1)C(C)C)C(=O)N[C@@H](Cc1ccccc1)[C@@H](O)C(=O)Nc1cc([N+](=O)[O-])cc([N+](=O)[O-])c1", 96],
  ["CC(C)C[C@H](NC(=O)[C@@H](NC(=O)[C@@H](N)CCC(=O)O)C(C)C)C(=O)N[C@@H](Cc1ccccc1)[C@@H](O)C(=O)Nc1ccccc1O", 60]
]}

Prompt: Could you tell me which inhibition is on file for "CC(C)C[C@H](NC(=O)[C@@H](NC(=O)[C@@H](N)CCC(=O)O)C(C)C)C(=O)N[C@@H](Cc1ccccc1)[C@@H](O)C(=O)Nc1cccc([N+](=O)[O-])c1" ?
Response: 71

Prompt: Could you tell me which inhibition is on file for "CCOC(=O)c1sc(NC(=O)[C@H](O)[C@H](Cc2ccccc2)NC(=O)[C@H](CC(C)C)NC(=O)[C@@H](NC(=O)[C@@H](N)CCC(=O)O)C(C)C)nc1C" ?
Response: 66

Prompt: Could you tell me which inhibition is on file for "CC(C)C[C@H](NC(=O)[C@@H](NC(=O)[C@@H](N)CNC(=O)c1nn[nH]n1)C(C)C)C(=O)N[C@@H](Cc1ccccc1)[C@@H](O)C(=O)Nc1cc(Cl)cc(Cl)c1" ?
Response: 99

----------
- MEASURED_ON: UniProt P56817
- RUN_DESCRIPTION: Inhibition of human recombinant BACE1 at 2 uM
Reported inhibition values are given for each entry in this list.
Please reply with the bare figure in % and do not write the unit itself.

{"columns": ["COMPOUND_STRUCTURE_STRING", "RESULT_UNIT", "VALUE"],
 "data": [
  ["CC(C)C[C@H](NC(=O)[C@@H](NC(=O)[C@@H](N)CCC(=O)O)C(C)C)C(=O)N[C@@H](Cc1ccccc1)[C@@H](O)C(=O)Nc1cccc(C(=O)NS(=O)(=O)C(F)(F)F)c1", "%", 86]
]}

Prompt: Could you tell me which inhibition is on file for "CC(C)C[C@H](NC(=O)[C@@H](NC(=O)[C@@H](N)CCC(=O)O)C(C)C)C(=O)N[C@@H](Cc1ccccc1)[C@@H](O)C(=O)Nc1cccc(C(=O)C(F)(F)F)c1" ?
Response: 51

Prompt: Could you tell me which inhibition is on file for "Cc1nc(NC(=O)[C@H](O)[C@H](Cc2ccccc2)NC(=O)[C@H](CC(C)C)NC(=O)[C@@H](NC(=O)[C@@H](N)CCC(=O)O)C(C)C)sc1C(=O)O" ?
Response: 94

Prompt: Could you tell me which inhibition is on file for "CC(C)C[C@H](NC(=O)[C@@H](NC(=O)[C@@H](N)CNC(=O)c1nn[nH]n1)C(C)C)C(=O)N[C@@H](Cc1ccccc1)[C@@H](O)C(=O)Nc1cc(Br)cc(C(F)(F)F)c1" ?
Response: 92

Prompt: Could you tell me which inhibition is on file for "CC(C)C[C@H](NC(=O)[C@@H](NC(=O)[C@@H](N)CCC(=O)O)C(C)C)C(=O)N[C@@H](Cc1ccccc1)[C@@H](O)C(=O)Nc1ccccc1" ?
Response: 53
